Numbers sourced from PubChem BioAssay (Tox21).

- PROTOCOL DETAILS: qHTS assay to identify small molecule agonists of H2AX - cell viability counter screen (AID 1224847);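 note: wild-type CHO-K1 cells; top concentration of the series differs between compounds; nearly all actives have a fitted effect of over 30% in size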
- ASSAY CONDITIONS: CHO-K1 viability, CellTiter-Glo luminescence, 3 h; series mostly up to 154 µM
Inconclusive results are not listed. Activity calls are given as the source filed them. Calls come from the whole dose curve.

MOLECULE	activity change, negative = cytotoxicity
CC1(C)O[C@@H]2C[C@H]3[C@@H]4CCC5=CC(=O)CC[C@]5(C)[C@@]4(F)[C@@H](O)C[C@]3(C)[C@]2(C(=O)CCl)O1	inactive
COc1ccccc1N1CCN(CCCNc2cc(=O)n(C)c(=O)n2C)CC1	inactive
Cc1nc(-c2ccccn2)ncc1C(=O)Nn1cc(C)c2cc(F)ccc21	inactive
CCCCNCCCC	inactive
Cc1ccccc1C(=O)Nc1ccc(C(=O)N2CCCC(O)c3cc(Cl)ccc32)c(C)c1 (configuration not stated)	inactive
Cc1c(N)cccc1N	inactive
CN1CCN(c2c(F)cc3c(=O)c(C(=O)O)cn(CCF)c3c2F)CC1	inactive
CCCCc1ccc2nc(NC(=O)OC)[nH]c2c1	inactive
C=C(C)C(=O)OCCOP(=O)(O)O	inactive
O=C(O)[C@@H](O)[C@H](O)[C@H](O)[C@@H](O)C(=O)O	inactive
O=C(O)[C@@H]1CSCN1	inactive
CCCCCCC	inactive
CCCC(CCC)(C(=O)OCC)C(=O)OCC	inactive
CC1=CC(=O)CC(C)(C)C1=O	inactive
C=O	inactive
Cc1ccc([N+](=O)[O-])c(N)c1	inactive
CCc1cc(Cl)c(OC)c(C(=O)NC[C@@H]2CCCN2CC)c1O	inactive
COc1ccccc1OCC(O)COC(N)=O (configuration not stated)	inactive
CCN[C@H]1CN(CCCOC)S(=O)(=O)c2sc(S(N)(=O)=O)cc21	inactive
O=C1Nc2ccc([N+](=O)[O-])cc2C1=O	inactive
CN1CCN(c2c(F)cc3c(=O)c(C(=O)O)cn4c3c2SCC4)CC1	inactive
CC(C)=CCCC(C)CCOC=O (configuration not stated)	inactive
CCCOCCC	inactive
CC(CNC1CCCCC1)OC(=O)c1ccccc1 (configuration not stated)	inactive
CCOC(=O)c1ccccc1O	inactive
CCC1(C)NC(=O)NC1=O (configuration not stated)	inactive
C[C@]12C(=O)OC(=O)[C@H]1[C@H]1C=C[C@@H]2C1	inactive
